compounds and their reported AC50
- measured-target: Cytochrome P450 2C19 (Homo sapiens, UniProt P33261)
- Sequence (P33261 whole entry): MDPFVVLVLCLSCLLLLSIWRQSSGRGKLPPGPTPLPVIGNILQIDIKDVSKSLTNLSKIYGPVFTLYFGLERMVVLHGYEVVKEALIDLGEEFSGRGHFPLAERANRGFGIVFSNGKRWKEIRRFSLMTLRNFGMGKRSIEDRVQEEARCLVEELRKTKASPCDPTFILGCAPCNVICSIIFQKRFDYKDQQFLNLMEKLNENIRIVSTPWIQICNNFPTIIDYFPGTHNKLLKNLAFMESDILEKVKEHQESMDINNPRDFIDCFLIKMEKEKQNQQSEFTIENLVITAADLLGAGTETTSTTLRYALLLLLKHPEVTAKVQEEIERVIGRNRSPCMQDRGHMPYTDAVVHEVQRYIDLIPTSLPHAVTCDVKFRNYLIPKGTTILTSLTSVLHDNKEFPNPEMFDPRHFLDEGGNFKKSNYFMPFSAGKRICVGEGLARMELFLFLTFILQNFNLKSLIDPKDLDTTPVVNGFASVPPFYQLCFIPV
- experiment-notes: Cytochrome panel assay with activity outcomes. Panel member name: p450-cyp2c19 Compounds with AC50 equal or less than 10 uM are considered active
- Assay type: functional
- assay-context: read-out: AC50

Study these solved cases before continuing.
Cc1cccc(NC(=O)c2ccc([N+](=O)[O-])o2)n1	20 µM (inconclusive)
COc1cc2c(cc1OC)C(c1ccc(N)cc1)=NNC(=O)C2	15.8 µM (inconclusive)
CNNCc1ccc(C(=O)NC(C)C)cc1	5.01 µM (inconclusive)

Endpoint output: AC50 of Cc1ccc(NC(=O)c2cc(NC(=O)CCC(=O)O)ccc2N2CCCCC2)cc1 . Value?
35.5 µM (inconclusive)

Endpoint output: AC50 of O=C(NCCN1CCN(Cc2ccccc2)CC1)C1c2ccccc2C(=O)N2CCc3ccccc3C12 (stereo unspecified) . Value?
39.8 µM (inconclusive)

Endpoint output: AC50 of CCc1cc[n+](C2=Nc3ccccc3[N-]C2=C(C#N)C#N)cc1 . Value?
25.1 µM (inconclusive)

Endpoint output: AC50 of CC(=O)Nc1ccc(S(=O)(=O)NCC2CCC(C(=O)N3CCN(c4ccccn4)CC3)CC2)cc1 (stereo unspecified) . Value?
10 µM (inconclusive)

Endpoint output: AC50 of N[C@@H](C(=O)O)[C@H](CC(=O)O)c1ccc(Cl)cc1 . Value?
25.1 µM (inconclusive)

Endpoint output: AC50 of CC12CCC(C(=O)Nc3ccccc3Br)(C/C1=N\O)C2(C)C (stereo unspecified) . Value?
31.6 µM (inconclusive)

Endpoint output: AC50 of Cc1cc(-c2ccccc2)nc(O)c1S(=O)(=O)c1ccc(Cl)cc1 . Value?
5.62 µM (inconclusive)

Endpoint output: AC50 of CCCc1nnc(SCC(=O)N2CCCCC2C)n1CC1CCCO1 (stereo unspecified) . Value?
25.1 µM (inconclusive)
